Biological target: T1, human GIP receptor (human, UniProt P48546 22-466)
T1 sequence (looked up): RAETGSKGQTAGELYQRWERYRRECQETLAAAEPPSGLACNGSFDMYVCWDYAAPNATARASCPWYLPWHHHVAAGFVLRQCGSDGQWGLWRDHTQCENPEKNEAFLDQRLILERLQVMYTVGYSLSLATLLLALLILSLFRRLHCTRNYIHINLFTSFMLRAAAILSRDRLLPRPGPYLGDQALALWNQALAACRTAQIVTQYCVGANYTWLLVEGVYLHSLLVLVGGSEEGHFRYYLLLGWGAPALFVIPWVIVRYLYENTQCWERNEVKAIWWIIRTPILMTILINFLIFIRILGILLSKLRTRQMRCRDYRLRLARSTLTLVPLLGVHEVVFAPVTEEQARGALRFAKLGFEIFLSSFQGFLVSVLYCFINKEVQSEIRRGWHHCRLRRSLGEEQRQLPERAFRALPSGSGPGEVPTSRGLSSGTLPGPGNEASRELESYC
Test: cell-based or functional assay
MEASURED_PROPERTY: EC50, cAMP (nM)
Express the result in nM but write the number alone.

The examples below pair each entry with its known result.
• YXEGTXTSDXSIXLDXKAQXEFIXXLIEGGKSSGAPPPS (Aib2, αMeF(2F)6, hTyr10, αMeL13, Orn16, Aib20, D-Glu24, αMeY25, K17 and K31: K(AEEA2-(γ-Glu)-CO-(CH2)12-CO2H), C-terminal NH2) [Example 59] = 0.024
• YXEGTXTSDXSIXLDXKAQXEXIXXLIEGGKSSGAPPPS (Aib2, αMeF(2F)6, 4Pal10, αMeL13, Orn16, Aib20, αMeF(2F)22, D-Glu24, αMeY25, K17 and K31: K(AEEA2-(γ-Glu)-CO-(CH2)12-CO2H), C-terminal NH2) [Example 88] = 0.00884

Next, consider the following binder.
Which EC50, cAMP is listed for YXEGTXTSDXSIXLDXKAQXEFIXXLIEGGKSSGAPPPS (Aib2, αMeF(2F)6, αMeV10, αMeL13, Orn16, Aib20, D-Glu24, αMeY25, K17 and K31: K(AEEA2-(γ-Glu)-CO-(CH2)12-CO2H), C-terminal NH2) [Example 52] ?
0.258
